# subject_of_test: T1, CD19 (UniProt P15391 20-556)
# T1 chain: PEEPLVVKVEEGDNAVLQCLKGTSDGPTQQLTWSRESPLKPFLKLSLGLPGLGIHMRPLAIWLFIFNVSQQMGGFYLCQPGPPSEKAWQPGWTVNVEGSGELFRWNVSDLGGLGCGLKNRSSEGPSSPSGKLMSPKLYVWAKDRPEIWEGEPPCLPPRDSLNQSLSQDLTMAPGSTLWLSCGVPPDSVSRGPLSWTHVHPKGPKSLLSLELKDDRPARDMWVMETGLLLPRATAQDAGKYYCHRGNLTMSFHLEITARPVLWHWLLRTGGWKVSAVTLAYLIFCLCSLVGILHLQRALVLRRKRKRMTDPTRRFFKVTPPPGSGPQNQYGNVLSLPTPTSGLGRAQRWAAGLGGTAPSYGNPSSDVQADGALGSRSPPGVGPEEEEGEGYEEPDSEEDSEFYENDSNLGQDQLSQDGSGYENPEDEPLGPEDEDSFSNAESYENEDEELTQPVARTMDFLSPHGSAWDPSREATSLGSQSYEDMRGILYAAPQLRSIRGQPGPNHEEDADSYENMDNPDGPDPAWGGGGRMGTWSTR
# experiment: flow
pEC50: −log10 of the molar value.
Documented pEC50 across a set of binders
quantity: pEC50

binder	endpoint_result
hFMCL2b/H4c-x-(Q1E)-WT (antibody, V domains shown) VH: EVQLQESGPGLVKPSETLSLTCTVSGVSLPDYGVSWIRQPPGKGLEWIGVIWGSETTYYNSALKSRVTISKDNSKNQFSLKLSSVTAADTAVYYCAKHYYYGGSYAMDYWGQGTLVTVSS VL: DIQMTQSPSSLSASVGDRVTITCRASQDISKYLNWYQQKPGKAVKLLIYHTSRLHSGVPSRFSGSGSGTDYTLTISSLQPEDFATYFCQQGATLPYTFGQGTKLEIK	7.77
hFMCL2b(V44L)/H4c(Q1E)-WT (antibody, V domains shown) VH: EVQLQESGPGLVKPSETLSVTCTVSGVSLPDYGVSWIRQPPGKGLEWLGVIWGSETTYYNSALKSRLTISKDNSKNQVSLKMSSLTAADTAVYYCAKHYYYGGSYAMDYWGQGTLVTVSS VL: DIQMTQSPSSLSASVGDRVTITCRASQDISKYLNWYQQKPGKALKLLIYHTSRLHSGVPSRFSGSGSGTDYTLTISSLQPEDFATYFCQQGATLPYTFGQGTKLEIK	8.77
hFMCL2b/H4c(Q1E)-WT (antibody, V domains shown) VH: EVQLQESGPGLVKPSETLSVTCTVSGVSLPDYGVSWIRQPPGKGLEWLGVIWGSETTYYNSALKSRLTISKDNSKNQVSLKMSSLTAADTAVYYCAKHYYYGGSYAMDYWGQGTLVTVSS VL: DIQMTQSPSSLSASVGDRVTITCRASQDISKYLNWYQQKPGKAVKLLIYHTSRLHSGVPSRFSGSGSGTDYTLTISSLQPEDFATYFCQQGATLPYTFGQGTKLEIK	9.09
hFMCL2b/H4b(Q1E-V20L)-WT (antibody, V domains shown) VH: EVQLQESGPGLVKPSETLSLTCTVSGVSLPDYGVSWIRQPPGKGLEWLGVIWGSETTYYNPSLKSRLTISKDNSKNQVSLKMSSLTAADTAVYYCAKHYYYGGSYAMDYWGQGTLVTVSS VL: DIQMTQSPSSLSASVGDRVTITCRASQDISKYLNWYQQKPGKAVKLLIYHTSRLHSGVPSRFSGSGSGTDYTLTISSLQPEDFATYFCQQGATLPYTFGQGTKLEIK	9.06
hFMCL2b/H4b-x-(Q1E)-WT (antibody, V domains shown) VH: EVQLQESGPGLVKPSETLSLTCTVSGVSLPDYGVSWIRQPPGKGLEWIGVIWGSETTYYNPSLKSRVTISKDNSKNQFSLKLSSVTAADTAVYYCAKHYYYGGSYAMDYWGQGTLVTVSS VL: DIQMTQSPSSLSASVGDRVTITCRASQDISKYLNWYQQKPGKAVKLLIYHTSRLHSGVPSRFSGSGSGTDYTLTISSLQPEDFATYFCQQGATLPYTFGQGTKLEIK	8.73
hFMCL2b/H4c(Q1E-V20L)-WT (antibody, V domains shown) VH: EVQLQESGPGLVKPSETLSLTCTVSGVSLPDYGVSWIRQPPGKGLEWLGVIWGSETTYYNSALKSRLTISKDNSKNQVSLKMSSLTAADTAVYYCAKHYYYGGSYAMDYWGQGTLVTVSS VL: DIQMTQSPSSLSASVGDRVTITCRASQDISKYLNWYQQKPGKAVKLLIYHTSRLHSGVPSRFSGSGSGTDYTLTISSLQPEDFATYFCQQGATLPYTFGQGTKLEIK	8.93
hFMCL2b/H4b(Q1E)-WT (antibody, V domains shown) VH: EVQLQESGPGLVKPSETLSVTCTVSGVSLPDYGVSWIRQPPGKGLEWLGVIWGSETTYYNPSLKSRLTISKDNSKNQVSLKMSSLTAADTAVYYCAKHYYYGGSYAMDYWGQGTLVTVSS VL: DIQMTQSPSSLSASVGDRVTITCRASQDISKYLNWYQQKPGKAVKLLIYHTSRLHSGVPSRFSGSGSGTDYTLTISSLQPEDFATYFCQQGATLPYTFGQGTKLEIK	9.01
